Tested on: Salmonella typhimurium TA98
Assay: Ames assay, strain TA98
Conditions: 160 ug/Well; without S9
property-measured: Mean Revertant Colony Counts TA98 S9-

>  <compound>
CC(C)(C)c1ccc(O)c(C(=O)Nc2cc(C(=O)O)ccc2Cl)c1 [Compound 600494]

>  <property-measured>
Mean Revertant Colony Counts TA98 S9-

>  <value>
11.7

$$$$
>  <compound>
CC(C)(C)c1ccc(O)c(C(=O)Nc2ccc(C(=O)O)cc2C(F)(F)F)c1 [Compound 500873]

>  <property-measured>
Mean Revertant Colony Counts TA98 S9-

>  <value>
10.0

$$$$
>  <compound>
CC(C)(C)c1cc(C(=O)Nc2ccc(C(=O)O)cc2Cl)c(O)c(C(C)(C)C)c1 [Compound 600453]

>  <property-measured>
Mean Revertant Colony Counts TA98 S9-

>  <value>
3.7

$$$$
>  <compound>
CC(C)(C)c1ccc(O)c(C(=O)Nc2ccc(C(=O)O)cc2Cl)c1 [Compound 500200]

>  <property-measured>
Mean Revertant Colony Counts TA98 S9-

>  <value>
5.0

$$$$

----------
Tested on: Salmonella typhimurium TA100
Conditions: 160 ug/Well; with S9

>  <structure-notation>
CC(C)(C)c1ccc(O)c(C(=O)Nc2ccc(C(=O)O)cc2C(F)(F)F)c1

>  <Mean Revertant Colony Counts TA-100 SP9+>
22.7

$$$$
>  <structure-notation>
CC(C)(C)c1cc(C(=O)Nc2ccc(C(=O)O)cc2Cl)c(O)c(C(C)(C)C)c1

>  <Mean Revertant Colony Counts TA-100 SP9+>
24.3

$$$$
>  <structure-notation>
CC(C)(C)c1ccc(O)c(C(=O)Nc2cc(C(=O)O)ccc2Cl)c1

>  <Mean Revertant Colony Counts TA-100 SP9+>
21.0

$$$$
>  <structure-notation>
CC(C)(C)c1ccc(O)c(C(=O)Nc2ccc(C(=O)O)cc2Cl)c1

>  <Mean Revertant Colony Counts TA-100 SP9+>
27.7

$$$$

----------
Form field: Mean Revertant Colony Counts TA-100 SP9+ (one value per entry).
Test system: Salmonella typhimurium TA100
Conditions: 10 ug/Well; with S9
property-measured: Mean Revertant Colony Counts TA-100 SP9+

>  <compound>
CC(C)(C)c1cc(C(=O)Nc2ccc(C(=O)O)cc2Cl)c(O)c(C(C)(C)C)c1 [Compound 600453]

>  <property-measured>
Mean Revertant Colony Counts TA-100 SP9+

>  <value>
27.0

$$$$
>  <compound>
O=C(Nc1ccc([N+](=O)[O-])cc1Cl)c1cc(Cl)ccc1O [Niclosamide]

>  <property-measured>
Mean Revertant Colony Counts TA-100 SP9+

>  <value>
23.3

$$$$
>  <compound>
CC(C)(C)c1ccc(O)c(C(=O)Nc2ccc(C(=O)O)cc2C(F)(F)F)c1 [Compound 500873]

>  <property-measured>
Mean Revertant Colony Counts TA-100 SP9+

>  <value>
20.7

$$$$
>  <compound>
CC(C)(C)c1ccc(O)c(C(=O)Nc2cc(C(=O)O)ccc2Cl)c1 [Compound 600494]

>  <property-measured>
Mean Revertant Colony Counts TA-100 SP9+

>  <value>
18.0

$$$$
>  <compound>
CC(C)(C)c1ccc(O)c(C(=O)Nc2ccc(C(=O)O)cc2Cl)c1 [Compound 500200]

>  <property-measured>
Mean Revertant Colony Counts TA-100 SP9+

>  <value>
22.0

$$$$

----------
Assay: Pharmacokinetic profile in Sprague Dawley rats (IV and PO)
Type: in vivo
Conditions: rat, plasma, IV 1 mg/kg, Mean + SD (n = 3), read-out: AUC last (IV)
Form field: AUC(0-t) (one value per entry).
property-measured: AUC(0-t)

>  <molecule>
CC(C)(C)c1cc(C(=O)Nc2ccc(C(=O)O)cc2Cl)c(O)c(C(C)(C)C)c1 [Compound 600453]

>  <value>
5.4 µg·h/mL

$$$$
>  <molecule>
CC(C)(C)c1ccc(O)c(C(=O)Nc2ccc(C(=O)O)cc2Cl)c1 [Compound 500200]

>  <value>
1.94 µg·h/mL

$$$$
>  <molecule>
CC(C)(C)c1ccc(O)c(C(=O)Nc2ccc(C(=O)O)cc2C(F)(F)F)c1 [Compound 500873]

>  <value>
13 µg·h/mL

$$$$
>  <molecule>
CC(C)(C)c1ccc(O)c(C(=O)Nc2cc(C(=O)O)ccc2Cl)c1 [Compound 600494]

>  <value>
18.2 µg·h/mL

$$$$

----------
Form field: Remaining Percentage of 60 min (%), Mouse, Negative Control (one value per entry).
Assay: Metabolic stability in mouse liver microsomes
Format: in vitro ADME
Details: 0.5mg/ml microsomes without NADPH; 60 min
property-measured: Remaining Percentage of 60 min (%), Mouse, Negative Control

>  <compound>
CC(C)(C)c1ccc(O)c(C(=O)Nc2ccc(C(=O)O)cc2Cl)c1 [Compound 500200]

>  <u>
%

>  <value>
111.5

$$$$
>  <compound>
CC(C)(C)c1cc(C(=O)Nc2ccc(C(=O)O)cc2Cl)c(O)c(C(C)(C)C)c1 [Compound 600453]

>  <u>
%

>  <value>
109.7

$$$$
>  <compound>
COC(=O)c1ccc(NC(=O)c2cccc(C(C)(C)C)c2O)c(Cl)c1 [Compound 600489]

>  <u>
%

>  <value>
4.1

$$$$
>  <compound>
CC(C)(C)c1ccc(O)c(C(=O)Nc2cc(C(=O)O)ccc2Cl)c1 [Compound 600494]

>  <u>
%

>  <value>
68.9

$$$$
>  <compound>
CC(C)(C)c1ccc(O)c(C(=O)Nc2ccc(C(=O)O)cc2C(F)(F)F)c1 [Compound 500873]

>  <u>
%

>  <value>
106.4

$$$$

----------
System: Salmonella typhimurium TA98
Test: Ames assay, strain TA98
Settings: 4 ug/Well; with S9
property-measured: Mean Revertant Colony Counts TA98 SP9+

>  <compound>
CC(C)(C)c1ccc(O)c(C(=O)Nc2cc(C(=O)O)ccc2Cl)c1

>  <property-measured>
Mean Revertant Colony Counts TA98 SP9+

>  <value>
9.3

$$$$
>  <compound>
CC(C)(C)c1ccc(O)c(C(=O)Nc2ccc(C(=O)O)cc2Cl)c1

>  <property-measured>
Mean Revertant Colony Counts TA98 SP9+

>  <value>
6.3

$$$$
>  <compound>
CC(C)(C)c1cc(C(=O)Nc2ccc(C(=O)O)cc2Cl)c(O)c(C(C)(C)C)c1

>  <property-measured>
Mean Revertant Colony Counts TA98 SP9+

>  <value>
8.3

$$$$
>  <compound>
CC(C)(C)c1ccc(O)c(C(=O)Nc2ccc(C(=O)O)cc2C(F)(F)F)c1

>  <property-measured>
Mean Revertant Colony Counts TA98 SP9+

>  <value>
6.0

$$$$
>  <compound>
O=C(Nc1ccc([N+](=O)[O-])cc1Cl)c1cc(Cl)ccc1O [Niclosamide]

>  <property-measured>
Mean Revertant Colony Counts TA98 SP9+

>  <value>
108.3

$$$$

----------
Experiment: Metabolic stability in human liver microsomes
Assay type: in vitro ADME
Settings: 0.5mg/ml microsomes and 1mM NADPH
property-measured: Remaining Percentage of 60 min (%), Human, Tested Sample

>  <structure-notation>
COC(=O)c1ccc(NC(=O)c2cccc(C(C)(C)C)c2O)c(Cl)c1

>  <value>
3.1

$$$$
>  <structure-notation>
CC(C)(C)c1cc(C(=O)Nc2ccc(C(=O)O)cc2Cl)c(O)c(C(C)(C)C)c1

>  <value>
58.8

$$$$
>  <structure-notation>
CC(C)(C)c1ccc(O)c(C(=O)Nc2ccc(C(=O)O)cc2C(F)(F)F)c1

>  <value>
64.2

$$$$
>  <structure-notation>
CC(C)(C)c1ccc(O)c(C(=O)Nc2ccc(C(=O)O)cc2Cl)c1

>  <value>
84.5

$$$$
>  <structure-notation>
CC(C)(C)c1ccc(O)c(C(=O)Nc2cc(C(=O)O)ccc2Cl)c1

>  <value>
99.4

$$$$

----------
System: Salmonella typhimurium TA98
Experiment: Ames assay, strain TA98
Conditions: 1.5 ug/Well; with S9

>  <molecule>
CC(C)(C)c1ccc(O)c(C(=O)Nc2ccc(C(=O)O)cc2C(F)(F)F)c1

>  <Mean Revertant Colony Counts TA98 SP9+>
5.7

$$$$
>  <molecule>
O=C(Nc1ccc([N+](=O)[O-])cc1Cl)c1cc(Cl)ccc1O [Niclosamide]

>  <Mean Revertant Colony Counts TA98 SP9+>
52.0

$$$$
>  <molecule>
CC(C)(C)c1ccc(O)c(C(=O)Nc2cc(C(=O)O)ccc2Cl)c1

>  <Mean Revertant Colony Counts TA98 SP9+>
8.7

$$$$
>  <molecule>
CC(C)(C)c1ccc(O)c(C(=O)Nc2ccc(C(=O)O)cc2Cl)c1

>  <Mean Revertant Colony Counts TA98 SP9+>
7.7

$$$$
>  <molecule>
CC(C)(C)c1cc(C(=O)Nc2ccc(C(=O)O)cc2Cl)c(O)c(C(C)(C)C)c1

>  <Mean Revertant Colony Counts TA98 SP9+>
5.0

$$$$
